# Tested on: Proteus vulgaris 3027
# test: MIC, plate method, standard strains
# Type: cell-based
# experimental_conditions: Table 3, standard strain; unit assumed
readout_name: MIC Proteus vulgaris 3027 (µg/mL)
Please state the figure in µg/mL; there is no need to write the unit.

Sample records with MIC Proteus vulgaris 3027:
| molecule | MIC Proteus vulgaris 3027 [µg/mL] |
| --- | --- |
| CC1(C)S[C@@H]2[C@H](NC(=O)[C@H](NC(=O)N3CC(=O)N(C(=O)c4ccccc4)CC3=O)c3ccccc3)C(=O)N2[C@H]1C(=O)O | 50 |
| CC(=O)N1CCN(C(=O)N[C@@H](C(=O)N[C@@H]2C(=O)N3[C@@H]2SC(C)(C)[C@@H]3C(=O)O)c2ccccc2)C(=O)C1 [drawing 188] | 3.13 |
| CCCCCN1CCN(C(=O)NC(C(=O)NC2C(=O)N3C2SC(C)(C)C3C(=O)O)c2ccccc2)C(=O)C1=O (single isomer, unassigned) | 0.4 |
| CC1(C)SC2C(NC(=O)C(NC(=O)N3CC(=O)NC(=O)C3)c3ccccc3)C(=O)N2C1C(=O)O (stereo not drawn) | 3.13 |

Recorded MIC Proteus vulgaris 3027 for CCCN1CCN(C(=O)NC(C(=O)NC2C(=O)N3C2SC(C)(C)C3C(=O)O)c2ccccc2)C(=O)C1=O (single isomer, unassigned) , please? 0.4

Try this molecule next: CCCCN1CCN(C(=O)NC(C(=O)NC2C(=O)N3C2SC(C)(C)C3C(=O)O)c2ccccc2)C(=O)C1=O (single isomer, unassigned) 0.4

====

Recorded measurements of MIC Staphylococcus aureus MS 8713, one per entry
# System: Staphylococcus aureus
# test: MIC against clinical isolates
# Assay type: cell-based
# experimental_conditions: Table 5-1, clinical isolate; unit assumed
Please state the figure in µg/mL; there is no need to write the unit.

| compound | target_desc | unit_text | MIC Staphylococcus aureus MS 8713 |
| --- | --- | --- | --- |
| CCCCN1CCN(C(=O)N[C@@H](C(=O)N[C@@H]2C(=O)N3[C@@H]2SC(C)(C)[C@@H]3C(=O)O)c2ccccc2)C(=O)C1 | Staphylococcus aureus | µg/mL | 3.13 |
| CCCCCCCCN1CCN(C(=O)N[C@@H](C(=O)N[C@@H]2C(=O)N3[C@@H]2SC(C)(C)[C@@H]3C(=O)O)c2ccccc2)C(=O)C1 | Staphylococcus aureus | µg/mL | 3.13 |
| CN1CCN(C(=O)NC(C(=O)NC2C(=O)N3C2SC(C)(C)C3C(=O)O)c2ccccc2)C(=O)C1=O (single isomer, unassigned) | Staphylococcus aureus | µg/mL | 12.5 |
| CCCCCCCCN1CCN(C(=O)NC(C(=O)NC2C(=O)N3C2SC(C)(C)C3C(=O)O)c2ccccc2)C(=O)C1=O (single isomer, unassigned) | Staphylococcus aureus | µg/mL | 6.25 |
| CC1(C)S[C@@H]2[C@H](NC(=O)C(C(=O)O)c3ccccc3)C(=O)N2[C@H]1C(=O)O (stereo partly shown) [Sodium Carbenicillin, reference compound] | Staphylococcus aureus | µg/mL | 6.25 |
| CCN1CCN(C(=O)N[C@@H](C(=O)N[C@@H]2C(=O)N3[C@@H]2SC(C)(C)[C@@H]3C(=O)O)c2ccccc2)C(=O)C1=O | Staphylococcus aureus | µg/mL | 6.25 |
| CC(=O)N1CCN(C(=O)N[C@@H](C(=O)N[C@@H]2C(=O)N3[C@@H]2SC(C)(C)[C@@H]3C(=O)O)c2ccccc2)C(=O)C1 | Staphylococcus aureus | µg/mL | 3.13 |
| CC1(C)S[C@@H]2[C@H](NC(=O)[C@H](N)c3ccccc3)C(=O)N2[C@H]1C(=O)O [Sodium Ampicillin, reference compound] | Staphylococcus aureus | µg/mL | 3.13 |

Recorded MIC Staphylococcus aureus MS 8713 for `CCCCCCN1CCN(C(=O)N[C@@H](C(=O)N[C@@H]2C(=O)N3[C@@H]2SC(C)(C)[C@@H]3C(=O)O)c2ccccc2)C(=O)C1` , please? 3.13

Try this compound next: CCCCCCN1CCN(C(=O)NC(C(=O)NC2C(=O)N3C2SC(C)(C)C3C(=O)O)c2ccccc2)C(=O)C1=O (single isomer, unassigned) 6.25

====

Recorded measurements of MIC Pseudomonas aeruginosa GN 221, one per entry
# Test system: Pseudomonas aeruginosa
# test: MIC against clinical isolates
# Type: cell-based
# experimental_conditions: Table 5-3, clinical isolate; unit assumed
Please state the figure in µg/mL; there is no need to write the unit.

| compound | unit_text | MIC Pseudomonas aeruginosa GN 221 |
| --- | --- | --- |
| CC(C)N1CCN(C(=O)NC(C(=O)NC2C(=O)N3C2SC(C)(C)C3C(=O)O)c2ccccc2)C(=O)C1=O (single isomer, unassigned) [Compound 40] | µg/mL | 6.25 |
| CCN1CCN(C(=O)N[C@@H](C(=O)N[C@@H]2C(=O)N3[C@@H]2SC(C)(C)[C@@H]3C(=O)O)c2ccccc2)C(=O)C1=O [Compound 36] | µg/mL | 3.13 |
| CCCCCCN1CCN(C(=O)NC(C(=O)NC2C(=O)N3C2SC(C)(C)C3C(=O)O)c2ccccc2)C(=O)C1=O (single isomer, unassigned) [Compound 46] | µg/mL | 12.5 |

Please turn your attention to the following entry.
Tell me reported MIC Pseudomonas aeruginosa GN 221 for CN1CCN(C(=O)NC(C(=O)NC2C(=O)N3C2SC(C)(C)C3C(=O)O)c2ccccc2)C(=O)C1=O (single isomer, unassigned) [Compound 37] , tested with Pseudomonas aeruginosa. 6.25

====

# Tested on: Shigella sonnei
# test: MIC against clinical isolates
# Type: cell-based
# experimental_conditions: Table 5-5, clinical isolate; unit assumed
Recorded measurements of MIC Shigella sonnei JS 11232, one per entry
Please state the figure in µg/mL; there is no need to write the unit.

Sample records with MIC Shigella sonnei JS 11232:
| compound | unit_text | MIC Shigella sonnei JS 11232 |
| --- | --- | --- |
| CCN1CCN(C(=O)N[C@@H](C(=O)N[C@@H]2C(=O)N3[C@@H]2SC(C)(C)[C@@H]3C(=O)O)c2ccccc2)C(=O)C1=O | µg/mL | 50 |
| CCCN1CCN(C(=O)NC(C(=O)NC2C(=O)N3C2SC(C)(C)C3C(=O)O)c2ccccc2)C(=O)C1=O (single isomer, unassigned) | µg/mL | 50 |

Please turn your attention to the following entry.
Recorded MIC Shigella sonnei JS 11232 for `CCCCCCCCN1CCN(C(=O)N[C@@H](C(=O)N[C@@H]2C(=O)N3[C@@H]2SC(C)(C)[C@@H]3C(=O)O)c2ccccc2)C(=O)C1` , please? 6.25

====

# System: Proteus vulgaris 3027
# test: MIC, plate method, standard strains
# Assay type: cell-based
# experimental_conditions: Table 3, standard strain; unit assumed
readout_name: MIC Proteus vulgaris 3027

| compound | MIC Proteus vulgaris 3027 |
| --- | --- |
| CC(=O)OCCN1CCN(C(=O)NC(C(=O)NC2C(=O)N3C2SC(C)(C)C3C(=O)O)c2ccccc2)C(=O)C1=O (single isomer, unassigned) [Compound 41] | < 1.57 µg/mL |
| CCN1CCN(C(=O)N[C@@H](C(=O)N[C@@H]2C(=O)N3[C@@H]2SC(C)(C)[C@@H]3C(=O)O)c2ccccc2)C(=O)C1=O [Compound 36] | < 1.57 µg/mL |
| CN1CCN(C(=O)NC(C(=O)NC2C(=O)N3C2SC(C)(C)C3C(=O)O)c2ccc(O)cc2)C(=O)C1=O (single isomer, unassigned) [compound 48] | < 0.4 µg/mL |

Please turn your attention to the following entry.
Recorded MIC Proteus vulgaris 3027 for CC(C)N1CCN(C(=O)NC(C(=O)NC2C(=O)N3C2SC(C)(C)C3C(=O)O)c2ccccc2)C(=O)C1=O (single isomer, unassigned) [Compound 40] , please? 0.4 µg/mL

====

Recorded measurements of MIC Staphylococcus aureus 209p, one per entry
# Test system: Staphylococcus aureus 209p
# test: MIC, plate method, standard strains
# Assay type: cell-based
# experimental_conditions: Table 3, standard strain, Heart infusion agar pH 7.4; unit assumed

Sample records with MIC Staphylococcus aureus 209p:
| molecule | result |
| --- | --- |
| CCCCCCN1CCN(C(=O)N[C@@H](C(=O)N[C@@H]2C(=O)N3[C@@H]2SC(C)(C)[C@@H]3C(=O)O)c2ccccc2)C(=O)C1 | < 1.57 µg/mL |
| CCCCCCCCN1CCN(C(=O)NC(C(=O)NC2C(=O)N3C2SC(C)(C)C3C(=O)O)c2ccccc2)C(=O)C1=O (single isomer, unassigned) | < 1.57 µg/mL |

Please turn your attention to the following entry.
Recorded MIC Staphylococcus aureus 209p for CN1CCN(C(=O)NC(C(=O)N[C@@H]2C(=O)N3[C@@H]2SC(C)(C)[C@@H]3C(=O)O)c2cccs2)C(=O)C1=O (stereo partly drawn) , please? < 1.57 µg/mL
